test system: E. faecalis Tc^r (L) (ATCC9790r/Tet L); assay type: cell-based; settings: Tc^r (L), 1st column
Would you mind telling me the reported MIC of each entry?
Give bare numbers, in µg.

These solved cases illustrate the format of a correct answer.
>  <COMPOUND>
CN(C)C1C(O)=C(C(N)=O)C(=O)C2(O)C(O)=C3C(=O)c4c(O)cccc4C(C)(O)C3CC12 (stereo not shown) [Tetracycline, reference compound]

>  <MIC / µg>
90

$$$$
>  <COMPOUND>
CCSCC1c2cccc(O)c2C(=O)C2=C(O)C3(O)C(=O)C(C(N)=O)=C(O)C(N(C)C)C3CC21 (stereo not shown) [Ethyl, 6-deoxy-13-(ethylmercapto) tetracycline]

>  <MIC / µg>
4

$$$$

Could you now consider this next compound?
Input CC(C)SCC1c2cccc(O)c2C(=O)C2=C(O)C3(O)C(=O)C(C(N)=O)=C(O)C(N(C)C)C3C(O)C21 (stereo not shown) [Isopropyl] , output reported MIC.
3
